Where do these numbers come from? They come from PubChem BioAssay AID248.

Tested on: L1210 leukemia ip in BDF1 mice, survival T/C
Experiment: NCI In Vivo Anticancer Drug Screen. Data for tumor model L1210 Leukemia (intraperitoneal) in B6D2F1 (BDF1) mice
Conditions: endpoint: mean survival time; dose: 200.0 mg/kg/injection; schedule: Q01DX009 (ip); vehicle: Klucel (hydroxypropylcellulose) (HPC); higher = longer survival
Inconclusive results and toxic doses are left out.
measure: T/C

Some entries whose results are on file:
Cc1ccc(Cl)c(NC(=O)Nc2ccccc2F)c1 | 100 % of control
COc1ccc([N+](=O)[O-])cc1NC(=O)Nc1ccccc1C(F)(F)F | 92 % of control
Cc1cc(S(=O)(=O)F)ccc1NC(=O)NCc1ccc([N+](=O)[O-])cc1 | 106 % of control
Cc1ccc(N=C(c2ccc([N+](=O)[O-])cc2)c2ccc([N+](=O)[O-])cc2)cc1 | 96 % of control
O=C(/C=C/c1ccc([N+](=O)[O-])cc1)Nc1ccc(S(=O)(=O)F)cc1 | 89 % of control
Cc1ccc(S(=O)(=O)N(C)c2cc(Cl)c(I)c(Cl)c2)cc1 | 94 % of control

Using the record for "CCCCCCn1c(O)c(C=N)c(=O)[nH]c1=O" , report its T/C.
99 % of control

Which T/C is listed for "Nc1cccc(OCCCOc2cccc([N+](=O)[O-])c2)c1" ?
90 % of control

// lookup T/C for "c1ccc2c3c([nH]c2c1)CCCC3"
113 % of control

Name the reported T/C value associated with the molecule "O=C(N/N=C/c1ccccc1Cl)c1ccccc1NC(=O)C1CC1"
98 % of control
